The entries below are paired with their reported Emax.
# Target Desc: delF508-CFTR-HRP (Homo sapiens, UniProt P13569, DEL508-508)
# Construct: expressed in transfected cells
# Sequence (P13569 with tags, fused parts or gaps DEL508-508): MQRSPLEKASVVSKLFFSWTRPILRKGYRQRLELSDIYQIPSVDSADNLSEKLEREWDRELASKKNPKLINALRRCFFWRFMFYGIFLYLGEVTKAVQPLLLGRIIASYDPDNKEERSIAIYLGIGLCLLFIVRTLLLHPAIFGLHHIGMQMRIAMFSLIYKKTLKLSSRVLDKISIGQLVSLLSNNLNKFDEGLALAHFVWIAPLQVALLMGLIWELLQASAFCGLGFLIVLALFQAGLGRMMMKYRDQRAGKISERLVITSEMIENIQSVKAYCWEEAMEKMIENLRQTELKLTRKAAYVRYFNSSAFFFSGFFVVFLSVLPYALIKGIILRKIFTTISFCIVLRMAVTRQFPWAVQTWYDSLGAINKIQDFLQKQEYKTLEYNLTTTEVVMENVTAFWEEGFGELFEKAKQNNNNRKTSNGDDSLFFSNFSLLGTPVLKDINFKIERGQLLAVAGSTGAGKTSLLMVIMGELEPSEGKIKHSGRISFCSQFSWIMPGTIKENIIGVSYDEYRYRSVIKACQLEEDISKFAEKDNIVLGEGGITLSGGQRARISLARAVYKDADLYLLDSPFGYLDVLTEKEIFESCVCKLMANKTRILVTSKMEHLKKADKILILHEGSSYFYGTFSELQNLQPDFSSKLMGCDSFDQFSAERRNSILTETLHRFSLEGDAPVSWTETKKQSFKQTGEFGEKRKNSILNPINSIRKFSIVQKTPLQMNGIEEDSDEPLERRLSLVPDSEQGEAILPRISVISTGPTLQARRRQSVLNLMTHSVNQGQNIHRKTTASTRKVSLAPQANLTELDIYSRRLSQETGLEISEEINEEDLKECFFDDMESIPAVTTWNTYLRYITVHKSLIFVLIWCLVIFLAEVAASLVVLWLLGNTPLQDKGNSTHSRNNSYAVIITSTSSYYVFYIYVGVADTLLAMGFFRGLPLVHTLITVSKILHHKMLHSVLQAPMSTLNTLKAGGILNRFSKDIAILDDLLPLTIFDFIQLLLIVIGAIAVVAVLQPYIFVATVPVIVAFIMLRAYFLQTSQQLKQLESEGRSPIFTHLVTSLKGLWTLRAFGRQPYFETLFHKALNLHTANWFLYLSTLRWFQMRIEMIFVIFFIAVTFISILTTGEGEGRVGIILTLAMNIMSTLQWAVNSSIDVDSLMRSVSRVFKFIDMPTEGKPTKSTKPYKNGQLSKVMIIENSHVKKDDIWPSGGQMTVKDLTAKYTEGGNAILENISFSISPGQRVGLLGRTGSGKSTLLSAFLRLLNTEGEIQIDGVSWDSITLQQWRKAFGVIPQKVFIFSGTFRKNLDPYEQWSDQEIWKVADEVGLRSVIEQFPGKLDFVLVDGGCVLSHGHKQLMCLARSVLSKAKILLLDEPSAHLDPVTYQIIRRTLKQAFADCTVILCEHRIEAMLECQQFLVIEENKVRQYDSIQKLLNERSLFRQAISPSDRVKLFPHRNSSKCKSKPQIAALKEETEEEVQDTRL
# Protocol Summary: Measurement of delF508-CFTR-HRP surface expression in CFBE41o- cells (HRP luminescence);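 for DelF508-CFTR-HRP Amax %: percent efficacy relative to a reference CFTR corrector compound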
# Format: cell-based
# Condition Description: CFBE41o-, read-out: DelF508-CFTR-HRP Amax %
Recorded Endpoint: Emax (%)

input_smiles=Cc1ccc(C2CCCCC2)c(OC2(C(=O)NS(=O)(=O)c3cccc(N4CCC(CO)(NC(=O)OC(C)(C)C)CC4)n3)CC2)c1 target_desc="delF508-CFTR-HRP (Homo sapiens, UniProt P13569, DEL508-508)" endpoint_value=674
input_smiles=O=C(NS(=O)(=O)c1cccc(N2CC3CCC(C2)O3)n1)C1(Oc2cc(Cl)ccc2C2CC3(CCC3)C2)CC1 target_desc="delF508-CFTR-HRP (Homo sapiens, UniProt P13569, DEL508-508)" endpoint_value=381
input_smiles=Cc1ccc(OC2CCCCCC2)c(OC2(C(=O)NS(=O)(=O)c3cccc(N4CC[C@H](O)C4)n3)CC2)c1 target_desc="delF508-CFTR-HRP (Homo sapiens, UniProt P13569, DEL508-508)" endpoint_value=462

###

# Target Desc: delF508-CFTR-HRP (Homo sapiens, UniProt P13569, DEL508-508)
# Construct: expressed in transfected cells
# Protocol Summary: Measurement of delF508-CFTR-HRP surface expression in CFBE41o- cells (HRP luminescence)
# Assay type: cell-based
# Condition Description: mean of at least two replicates
For each record, check the reported EC50: if it is below 3000 nM write 1.0, else write 0.0.

compound="O=C(NS(=O)(=O)c1cccc(N2CC[C@@H](O)C2)n1)C1(Oc2cc(Cl)ccc2C2CC3(CCC3)C2)CC1 [Example 7-19]" category_label=1.0
compound="Cc1ccc(C2CCCCC2)c(OC2(C(=O)NS(=O)(=O)c3cccc(N4CCC(C)(NC(=O)OC(C)(C)C)C4)n3)CC2)c1 (stereo not drawn) [Example 2-24]" category_label=1.0
compound="CC1(O)CN(c2cccc(S(=O)(=O)NC(=O)C3(Oc4cc(Cl)ccc4C4CC5(CCC5)C4)CC3)n2)C1 [Example 7-10]" category_label=1.0
compound="Cc1ccc(C2CCCCC2)c(OC2(C(=O)NS(=O)(=O)c3nc(N)ccc3F)CC2)c1 [Example 1-7]" category_label=1.0
compound="Cc1ccc(-c2cccc(C(F)(F)F)c2)c(OC2(C(=O)NS(=O)(=O)c3cccc(N4CCC(N)(C(F)(F)F)CC4)n3)CC2)c1 [Example 5-16]" category_label=1.0
compound="CC1(C)CCN(c2ccc(Cl)cc2OC2(C(=O)NS(=O)(=O)c3cccc(N4CCC(C)(O)CC4)n3)CC2)CC1 [Example 9-42]" category_label=1.0
compound="O=C(NS(=O)(=O)c1cccc(N2CC[C@H](O)C2)n1)C1(Oc2cc(Cl)ccc2N2CC3(COC3)C2)CC1 [Example 9-23]" category_label=0.0
compound="C=C(c1ccc(F)cc1OC1(C(=O)NS(=O)(=O)c2cccc(N3CCN(c4ccccc4)CC3)n2)CC1)C(F)(F)F [Example 4-18]" category_label=0.0
compound="Cc1ccc(OCc2ccccc2)c(OC2(C(=O)NS(=O)(=O)c3cccc(N4CCO[C@@H](C)C4)n3)CC2)c1 [Example 6-1]" category_label=0.0
compound="O=C(NS(=O)(=O)c1cccc(N2CC[C@H](O)C2)n1)C1(Oc2cc(Cl)ccc2N2CCC3(CCC3)CC2)CC1 [Example 9-12]" category_label=1.0
compound="Cc1ccc(C2CCC(F)(F)CC2)c(OC2(C(=O)NS(=O)(=O)c3cccc(N4CCCC(CO)C4)n3)CC2)c1 (single isomer, unassigned) [Example 3-3-2]" category_label=1.0
compound="Cc1ccc(C2CCCC2)c(OC2(C(=O)NS(=O)(=O)c3cccc(NC[C@@H](C)O)n3)CC2)c1 [Example 4-6]" category_label=0.0
compound="Cc1ccc(C2CCCCC2)c(OC2(C(=O)NS(=O)(=O)c3cccc(N(C)C)n3)CC2)c1 [Example 2-25]" category_label=1.0
compound="Cc1ccc(-c2cccc(OC(F)(F)F)c2)c(OC2(C(=O)NS(=O)(=O)c3cccc(N4CC(C)(O)C4)n3)CC2)c1 [Example 5-8]" category_label=1.0
compound="O=C(NS(=O)(=O)c1cccc(N2CC[C@H](O)C2)n1)C1(Oc2cc(Cl)ccc2N2CCC(C(F)(F)F)CC2)CC1 [Example 9-16]" category_label=1.0
compound="Cc1ccc(OC2CCC(C(C)(C)C)CC2)c(OC2(C(=O)NS(=O)(=O)c3cccc(N4CCC(O)(C(F)(F)F)CC4)n3)CC2)c1 (stereo not drawn) [Example 6-8]" category_label=1.0
compound="CC(C)(C)OC1CCN(c2ccc(Cl)cc2OC2(C(=O)NS(=O)(=O)c3cccc(N4CC[C@H](O)C4)n3)CC2)C1 (stereo partly drawn) [Example 9-32]" category_label=1.0
compound="Cc1ccc(C2CCCCC2)c(OC2(C(=O)NS(=O)(=O)c3cccc(N4CCC(C)(O)CC4)n3)CC2)c1 [Example 2-49]" category_label=1.0
compound="Cc1ccc(C2CCCCC2)c(OC2(C(=O)NS(=O)(=O)c3cccc(N4CCO[C@H](C)C4)n3)CC2)c1 [Example 2-53]" category_label=1.0
compound="Cc1ccc(C2CCCCC2)c(OC2(C(=O)NS(=O)(=O)c3cccc(N4CCC(C)(N)CC4)n3)CC2)c1 [Example 2-9]" category_label=1.0

Values compiled from patent US20220033407A1.
